Tested on: NCI-H226
Experiment: NCI tumour cell line growth inhibition, 48 h
Activity calls are given as the source filed them. Rule as the data show it: active = GI50 up to about 1.1 µM and inactive = higher.
Measurement Label: GI50

The examples below pair each entry with its known result.
| Compound | Assay System | GI50 |
| --- | --- | --- |
| Clc1cc2nc(C3CCCO3)[nH]c2cc1Cl (configuration not stated) | NCI-H226 | > 100 µM (inactive) |
| O=C(O)c1ccccc1SCc1cccc2c(=O)c3ccc(Cl)cc3oc12 | NCI-H226 | > 50 µM (inactive) |
| [N-]=[N+]=NC1C2CC3CC(C2)CC1C3 (configuration not stated) | NCI-H226 | > 100 µM (inactive) |
| Cc1ccc(N/N=C/C2=CC(C)(C)C(C#N)(C#N)C(O)=C2C#N)cc1 | NCI-H226 | > 100 µM (inactive) |
| O=C(O)c1c(CC(Cc2ccc3c(c2)CCCC3)C(=O)O)ccc2c1CCCC2 (configuration not stated) | NCI-H226 | > 100 µM (inactive) |
| Clc1ccc2c(NCCCC/N=C/c3ccccc3)ccnc2c1 | NCI-H226 | 4.33 µM (inactive) |

Could you now consider this next compound?
Consider the compound shown here: "CN1CCc2nc(N)nc(-c3nc(N)nc4c3CN(C)CC4)c2C1" What is its recorded GI50?
> 100 µM (inactive)

====

Test system: LOX IMVI
Assay: NCI tumour cell line growth inhibition, 48 h
Active and inactive are the calls of the source. Cut-off read from the data, not from the text of the source: active = GI50 up to about 1.1 µM and inactive = higher.
Measurement Label: GI50

| Molecule | Assay System | GI50 |
| --- | --- | --- |
| COc1ccc(CC2NCCc3cc(OC)c(OC)cc32)cc1Br (stereo not given) | LOX IMVI | 19.1 µM (inactive) |
| Cc1ccc(/C=C/C(=O)Oc2ccc(/C=C3\CCC/C(=C\c4ccc(OC(=O)/C=C/c5ccc(C)cc5)cc4)C3=O)cc2)cc1 | LOX IMVI | > 100 µM (inactive) |
| O=C(C=P(c1ccccc1)(c1ccccc1)c1ccccc1)c1ccc(-c2cccs2)cc1 | LOX IMVI | 4.57 µM (inactive) |
| O=C1CSc2cc([N+](=O)[O-])ccc2N1 | LOX IMVI | > 100 µM (inactive) |

Consider the molecule shown here: "O=c1/c(=C/c2ccc([N+](=O)[O-])o2)sc2n1[C@@H](c1ccc3c(c1)OCO3)C=C(c1cc(F)c(Cl)cc1Cl)N=2" What is its recorded GI50?
17.2 µM (inactive)

====

Test system: EKVX
Assay: NCI tumour cell line growth inhibition, 48 h
Calls of active or inactive are those of the source. Rule as the data show it: active = GI50 up to about 1.1 µM and inactive = higher.
Measurement Label: GI50

The examples below pair each entry with its known result.
| Compound | GI50 |
| --- | --- |
| CC1CC=CC(O)C1 (stereo unspecified) | > 100 µM (inactive) |
| Cn1ncc(=S)[nH]c1=S | > 100 µM (inactive) |
| COc1ccccc1C1CC(=O)CC(c2ccccc2OC)C12C(=O)NC(=S)NC2=O (stereo unspecified) | > 100 µM (inactive) |
| CC1=NN(c2cccc(Cl)c2)C2(C1=Cc1ccccc1)C(Cl)C(=O)N2c1nc2ccccc2s1 (stereo unspecified) | 33.9 µM (inactive) |
| CC1(C)C=[N+]([O-])C(C)(C)N1 | > 100 µM (inactive) |
| O=CC1=CCC2c3[nH]c4ccccc4c3CCN2C1 (stereo unspecified) | > 396 µM (inactive) |
| Cc1cccc2c(N)c3cccc(C(=O)NCC[N+](C)(C)[O-])c3nc12 | 15.6 µM (inactive) |
| CSC1=N/C(=C\c2ccco2)C(=O)N1CN1CCOCC1 | > 79.1 µM (inactive) |

Consider the compound shown here: "O=C(O)c1ccccc1SCc1cccc2c(=O)c3ccc(Cl)cc3oc12" What is its recorded GI50?
> 50 µM (inactive)

What would you report for "CSc1ncnc2c1cnn2Cc1cn(CCCCO)nn1" ?
> 100 µM (inactive)

What would you report for "Cn1c(COC(=O)NC2CCCCC2)c(COC(=O)NC2CCCCC2)c2ccc3cc(Cl)c(Cl)cc3c21" ?
27.7 µM (inactive)
